# Test System: Peroxisome proliferator-activated receptor alpha (Homo sapiens, UniProt Q07869)
# Sequence (Q07869 whole entry, the tested form may be a part): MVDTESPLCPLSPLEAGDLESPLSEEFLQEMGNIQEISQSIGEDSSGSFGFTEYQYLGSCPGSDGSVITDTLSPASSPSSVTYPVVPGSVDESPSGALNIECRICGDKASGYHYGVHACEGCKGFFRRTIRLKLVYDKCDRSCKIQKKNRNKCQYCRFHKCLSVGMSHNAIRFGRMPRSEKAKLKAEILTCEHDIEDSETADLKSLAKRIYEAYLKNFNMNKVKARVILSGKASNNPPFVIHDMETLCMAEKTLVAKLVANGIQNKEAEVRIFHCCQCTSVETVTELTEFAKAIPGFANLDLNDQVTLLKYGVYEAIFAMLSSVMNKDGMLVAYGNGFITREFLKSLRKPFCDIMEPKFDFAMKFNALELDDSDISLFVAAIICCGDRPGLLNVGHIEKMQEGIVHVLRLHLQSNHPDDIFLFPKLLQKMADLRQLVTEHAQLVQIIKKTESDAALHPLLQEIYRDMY
# Experiment Notes: Agonist activity at GAL4-tagged PPARalpha in human A498 cells assessed as transcriptional activation incubated for 72 hrs under hypoxic condition by luciferase assay
# Assay type: cell-based
Parameter: EC50 (µM)
Numbers only, in µM.

Lookup result for C1=CC(c2nc(-c3cccnc3)no2)CC1 (stereo unspecified) ; measured EC50: 0.47

* * *

# Test System: Peroxisome proliferator-activated receptor alpha (Homo sapiens, UniProt Q07869)
# Experiment Notes: Agonist activity at GAL4-tagged PPARalpha in human RPTEC assessed as transcriptional activation incubated for 72 hrs under normoxic condition by luciferase assay
# Assay type: cell-based
Parameter: EC50 (nM)
One number for each entry, in nM.

Reported EC50 of C1=CC(c2nc(-c3cccnc3)no2)CC1 (stereo unspecified) : 210
